# binding signal annotations
Target: GST-Rok (full length) (Bacillus subtilis subsp. subtilis str. …, UniProt O34857 1-191)
Sequence: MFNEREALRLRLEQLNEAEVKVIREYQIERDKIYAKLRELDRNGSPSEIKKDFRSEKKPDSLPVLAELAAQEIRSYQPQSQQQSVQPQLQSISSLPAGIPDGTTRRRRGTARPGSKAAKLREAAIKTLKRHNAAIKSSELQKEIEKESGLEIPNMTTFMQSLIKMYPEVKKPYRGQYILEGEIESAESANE
Test: protein binding microarray; high values mean tight binding
Conditions: protein: recombinant; tags: GST (pTH5325, pDEST15-Magic modified); dsDNA, one strand shown
Over roughly 33,000 sequences, “e-score” has its median near -0.037; the highest 2% begin near 0.34. The list comes from a sample in which the highest values are over-represented; it also holds close analogues and randomly drawn sequences.
// return numeric value only (unit: E-score, not printed)

GTCTGGCA    -0.182
CCTAGATA    0.101
TAAACCTA    0.181
GTAACTAC    0.394
ATTTATTG    0.348
AGTCGGAC    -0.171
CGATAGTC    -0.0533
CCTTACCG    0.0725
TAAACTAA    0.288
ACTAGACA    0.054

Entry "AAGTATAT" under GST-Rok (full length) (Bacillus subtilis subsp. subtilis str. …, UniProt O34857 1-191) had binding signal of 0.348

Entry "CACTTTTC" under GST-Rok (full length) (Bacillus subtilis subsp. subtilis str. …, UniProt O34857 1-191) had binding signal of 0.0315

###

Target: GST-Rok (full length) (Bacillus subtilis subsp. subtilis str. …, UniProt O34857 1-191)
Sequence: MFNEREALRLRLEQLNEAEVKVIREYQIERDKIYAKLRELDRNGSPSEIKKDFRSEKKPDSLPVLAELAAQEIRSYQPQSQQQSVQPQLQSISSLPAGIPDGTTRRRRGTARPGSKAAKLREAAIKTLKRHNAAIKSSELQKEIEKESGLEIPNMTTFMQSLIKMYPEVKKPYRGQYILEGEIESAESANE
Assay: protein binding microarray; high values mean tight binding
Conditions: protein: recombinant; tags: GST (pTH5325, pDEST15-Magic modified); dsDNA, one strand shown
Whole data set: some 33,000 sequences, median “e-score” near -0.037, cut for the highest 2% near 0.34. Many of the other results were omitted from the sample, so the highest values are more common in it than they were.
Label Criterion met when binding signal is strictly below 0.3 E-score; at or above that, label Criterion not met.

GATAGTAC    Criterion met
AATATGTC    Criterion met
CTATTTAA    Criterion met
GTATAATA    Criterion not met
ATTATGTA    Criterion not met
ATAATACA    Criterion met
GGATGTTA    Criterion met
ATAATACG    Criterion not met
AACTATAC    Criterion not met
ATATTTAG    Criterion met

For this sequence, is binding signal lower than 0.3 E-score? "ATAATAAC"
Criterion not met

For this sequence, is binding signal lower than 0.3 E-score? "AACTTCTT"
Criterion met

For this sequence, is binding signal lower than 0.3 E-score? "AGATGTAA"
Criterion met

###

Biological target: GST-Rok (full length) (Bacillus subtilis subsp. subtilis str. …, UniProt O34857 1-191)
Sequence: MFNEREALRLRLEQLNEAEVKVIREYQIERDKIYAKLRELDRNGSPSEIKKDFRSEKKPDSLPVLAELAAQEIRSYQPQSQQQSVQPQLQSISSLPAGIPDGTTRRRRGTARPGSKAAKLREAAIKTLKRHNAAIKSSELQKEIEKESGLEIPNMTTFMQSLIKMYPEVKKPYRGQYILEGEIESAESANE
Assay: protein binding microarray; high values mean tight binding
Conditions: protein: recombinant; tags: GST (pTH5325, pDEST15-Magic modified); dsDNA, one strand shown
Over roughly 33,000 sequences, “e-score” has its median near -0.037; the highest 2% begin near 0.34. The full list was thinned out, with the highest values kept by preference.
outcome.measure: binding signal
# do not omit the unit; it follows the number

# count of solved cases: 3
GATCTAAC    0.12 E-score
GCTTTTTA    0.157 E-score
CCAGCATA    -0.0442 E-score

// recorded binding signal for "GAAGTCCC" : -0.124 E-score

// recorded binding signal for "AATCTACC" : 0.437 E-score

// recorded binding signal for "ACGAAACA" : 0.0691 E-score

// recorded binding signal for "CATCTACC" : 0.291 E-score

// recorded binding signal for "ACGAAACT" : 0.337 E-score

// recorded binding signal for "CCACTAGC" : -0.055 E-score

// recorded binding signal for "GGCTAAGA" : 0.000408 E-score

// recorded binding signal for "AATCTACG" : 0.311 E-score

// recorded binding signal for "AATAGTTG" : 0.313 E-score

// recorded binding signal for "GATAGTCA" : 0.0302 E-score

// recorded binding signal for "GATAGTTA" : 0.391 E-score

// recorded binding signal for "AAGAATAA" : 0.183 E-score

// recorded binding signal for "AGTGACAG" : -0.0878 E-score

###

Target: GST-Rok (full length) (Bacillus subtilis subsp. subtilis str. …, UniProt O34857 1-191)
Sequence: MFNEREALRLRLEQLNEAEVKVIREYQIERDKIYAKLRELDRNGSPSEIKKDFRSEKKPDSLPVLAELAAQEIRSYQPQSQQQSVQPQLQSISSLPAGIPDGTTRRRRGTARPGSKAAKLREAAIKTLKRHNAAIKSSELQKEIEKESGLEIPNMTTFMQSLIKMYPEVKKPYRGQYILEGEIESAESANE
Assay: protein binding microarray; high values mean tight binding
Conditions: protein: recombinant; tags: GST (pTH5325, pDEST15-Magic modified); dsDNA, one strand shown
Over roughly 33,000 sequences, “e-score” has its median near -0.037; the highest 2% begin near 0.34. The entries come from a sample that favours the highest values as a whole.
# binding signal annotations
// return numeric value only (unit: E-score, not printed)

AATCAATA    0.296
ATTATACC    0.269
TTAGTAAA    0.237
AATTAAAC    0.0743
CGGCGAAG    0.0313

// recorded binding signal for "CTTATACA" : 0.283

// recorded binding signal for "ACCTCCAA" : -0.0283

// recorded binding signal for "CTTAAAAG" : -0.119

// recorded binding signal for "CTAGTAAA" : 0.328

// recorded binding signal for "CGTTCCAC" : -0.021

###

Biological target: GST-Rok (full length) (Bacillus subtilis subsp. subtilis str. …, UniProt O34857 1-191)
Sequence: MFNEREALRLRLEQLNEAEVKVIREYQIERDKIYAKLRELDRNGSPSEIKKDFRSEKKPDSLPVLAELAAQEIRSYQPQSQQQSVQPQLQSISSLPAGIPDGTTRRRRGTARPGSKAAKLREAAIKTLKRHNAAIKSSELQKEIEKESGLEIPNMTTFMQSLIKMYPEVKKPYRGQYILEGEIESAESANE
Assay: protein binding microarray; high values mean tight binding
Conditions: protein: recombinant; tags: GST (pTH5325, pDEST15-Magic modified); dsDNA, one strand shown
The full ranking holds about 33,000 sequences; the median of “e-score” is about -0.037, and the highest 2% start at about 0.34. What follows is part of a selection rich in the highest values, with near analogues and random picks from the rest.
Entries are grouped by binding signal into these classes: A: < 0.05 E-score; B: ≥ 0.05 E-score and < 0.2 E-score; C: ≥ 0.2 E-score

Band assignment needed for "CTAGAAAA" please.
C

Band assignment needed for "AATCTTCG" please.
B

Band assignment needed for "ACCTACAG" please.
A

Band assignment needed for "AACTTCAC" please.
A

Band assignment needed for "CTACTAGA" please.
C

###

Biological target: GST-Rok (full length) (Bacillus subtilis subsp. subtilis str. …, UniProt O34857 1-191)
Sequence: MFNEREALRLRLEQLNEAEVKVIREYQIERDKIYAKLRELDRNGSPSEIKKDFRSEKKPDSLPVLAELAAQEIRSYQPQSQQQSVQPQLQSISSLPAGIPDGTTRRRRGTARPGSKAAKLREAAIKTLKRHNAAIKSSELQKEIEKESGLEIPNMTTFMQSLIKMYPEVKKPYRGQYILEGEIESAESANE
Test: protein binding microarray; Rok is a gene silencer of Bacillus subtilis; high values mean tight binding
Conditions: protein: recombinant; tags: GST (pTH5325, pDEST15-Magic modified); dsDNA, one strand shown
Over roughly 33,000 sequences, “e-score” has its median near -0.037; the highest 2% begin near 0.34. The full list was thinned out, with the highest values kept by preference.
# binding signal annotations
// return numeric value only (unit: E-score, not printed)

# count of solved cases: 4
AACTACGC    0.201
CACTACGA    0.174
TCATATAA    0.192
GTTCTACA    0.265

// recorded binding signal for "GAAGTATA" : 0.169

// recorded binding signal for "GCAGTATA" : 0.275

// recorded binding signal for "GTGCCAAA" : -0.127

// recorded binding signal for "CTAGGAAG" : -0.0907
